- STUDY_SYSTEM: KRAS G12C (Homo sapiens (Human), UniProt P01116, C118A/G12C)
- Sequence (P01116 other isoform, or with tags, fused parts or gaps G12C/C118A): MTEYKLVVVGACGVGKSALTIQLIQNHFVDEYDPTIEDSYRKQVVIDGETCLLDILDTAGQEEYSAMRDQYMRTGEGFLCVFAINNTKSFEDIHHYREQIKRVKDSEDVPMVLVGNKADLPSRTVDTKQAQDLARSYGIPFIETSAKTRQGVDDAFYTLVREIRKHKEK
- MEASUREMENT_NOTES: 2 h coupled exchange assay
- Type: biochemical
- SETUP_CONDITIONS: Avg 2 h Coupled exchange IC50, 2 h compound pre-incubation
pIC50: −log10 of the molar value.
Catalogue of pIC50 values

COMPOUND: C=CC(=O)N1CC2(CCN(c3nc4c(c(-c5cccc6cc(O)ccc56)c3C)CCN(C3COC3)C4)C2)C1 [Example 18-7]
pIC50: 7.15
--
COMPOUND: C=CC(=O)N1CC2(CCN(c3nc4c(c(-c5cc(O)c(F)cc5Cl)c3C#N)C[C@H]3C[C@@H]4C3(C)C)C2)C1 [Example 14-84]
pIC50: 6.84
--
COMPOUND: C=CC(=O)N1CC2(CCN(c3nc4c(c(-c5cccc(F)c5O)c3C#N)CCC(c3scnc3C)=C4)C2)C1 [Example 23-54]
pIC50: 6.95
